- Assay System: EGFR TMLRCS (Homo sapiens, UniProt P00533, C797S/L858R/T790M)
- Construct: host or cells: BaF3-TMLRCS (Ba/F3 cells, kept under puromycin selection)
- Sequence (P00533 25-1210 T790M/C797S/L858R): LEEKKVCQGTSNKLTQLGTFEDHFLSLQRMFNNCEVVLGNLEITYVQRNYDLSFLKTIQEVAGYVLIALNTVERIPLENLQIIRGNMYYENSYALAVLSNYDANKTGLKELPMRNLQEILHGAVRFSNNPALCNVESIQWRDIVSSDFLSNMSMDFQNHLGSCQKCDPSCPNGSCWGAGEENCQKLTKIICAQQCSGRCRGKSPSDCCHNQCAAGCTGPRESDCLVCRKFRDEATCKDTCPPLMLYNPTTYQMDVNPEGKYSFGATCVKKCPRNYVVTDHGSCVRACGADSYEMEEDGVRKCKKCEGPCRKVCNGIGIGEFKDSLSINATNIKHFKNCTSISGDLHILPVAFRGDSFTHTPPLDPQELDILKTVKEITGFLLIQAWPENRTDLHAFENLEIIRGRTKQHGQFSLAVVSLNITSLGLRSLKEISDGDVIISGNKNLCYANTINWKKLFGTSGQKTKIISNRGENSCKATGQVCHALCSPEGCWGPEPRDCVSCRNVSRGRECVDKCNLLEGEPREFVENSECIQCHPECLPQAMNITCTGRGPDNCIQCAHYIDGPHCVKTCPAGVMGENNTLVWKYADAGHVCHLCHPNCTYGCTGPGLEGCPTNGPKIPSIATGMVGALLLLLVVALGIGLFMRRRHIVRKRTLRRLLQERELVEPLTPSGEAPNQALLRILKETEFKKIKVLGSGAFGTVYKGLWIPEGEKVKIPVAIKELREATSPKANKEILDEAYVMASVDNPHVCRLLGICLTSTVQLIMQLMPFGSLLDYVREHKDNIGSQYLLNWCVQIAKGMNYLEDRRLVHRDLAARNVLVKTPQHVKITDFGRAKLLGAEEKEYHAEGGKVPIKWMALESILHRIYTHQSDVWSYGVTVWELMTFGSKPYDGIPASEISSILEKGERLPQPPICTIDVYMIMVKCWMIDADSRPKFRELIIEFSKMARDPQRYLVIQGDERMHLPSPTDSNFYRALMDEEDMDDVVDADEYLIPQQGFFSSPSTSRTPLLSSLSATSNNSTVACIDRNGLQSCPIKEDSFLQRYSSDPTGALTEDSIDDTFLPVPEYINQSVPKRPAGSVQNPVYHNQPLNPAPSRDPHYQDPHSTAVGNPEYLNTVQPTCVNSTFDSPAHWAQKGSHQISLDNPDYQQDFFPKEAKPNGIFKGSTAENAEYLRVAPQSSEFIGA
- Protocol: HTRF Phospho EGFR TMLRCS Assay (Cellular)
- Assay type: cell-based
- Measurement Setup: BaF3-TMLRCS cell line, 4 hours incubation, Phospho-EGFR HTRF readout
Property Name: IC50 (nM)

// worked examples, IC50 included
molecule="Cc1cc(-c2ccc(N3CCOCC3)cc2)c(Cl)c2nn(C(C(=O)Nc3nccs3)c3ncn4c3C[C@@H](F)C4)cc12 (stereo partly shown)" reported=5
molecule="O=C(Nc1nccs1)C(c1ncn2c1C[C@@H](F)C2)n1cc2c(Cl)cc(-c3ccc(CN4CCC(CO)CC4)cc3)c(Cl)c2n1 (mixture of isomers)" reported=5
molecule="CCN1CC(c2ccc(-c3cc(Cl)c4cn(C(C(=O)Nc5nccs5)c5ncn6c5C[C@@H](F)C6)nc4c3Cl)cc2)C1 (stereo partly shown)" reported=10
molecule="Cc1c(-c2ccc(N3CCOCC3)cc2)cc(Cl)c2cn(C(C(=O)Nc3nccs3)c3ncn4c3C[C@@H](F)C4)nc12 (stereo partly shown)" reported=8

P = CCN(C)CCc1ccc(-c2cc(C)c3cn(C(C(=O)Nc4nccs4)c4ncn5c4C[C@@H](F)C5)nc3c2C)cc1 (stereo partly shown)
Q = O=C(Nc1nccs1)C(c1ncn2c1C[C@@H](F)C2)n1cc2c(Cl)cc(-c3ccc(CCN4CCC(O)C4)cc3)c(Cl)c2n1 (mixture of isomers)
R = COCCN1CCC(c2ccc(-c3cc(Cl)c4cn(C(C(=O)Nc5nccs5)c5ncn6c5C[C@@H](F)C6)nc4c3Cl)cc2)CC1 (stereo partly shown)
Descending sort on IC50 required. // list labels; follow requested order
P, Q, R
(P: 15 nM, Q: 8 nM, R: 4 nM)

a = CCN1CCCC2(C1)CN(c1ccc(-c3cc(Cl)c4cn(C(C(=O)Nc5nccs5)c5ncn6c5C[C@@H](F)C6)nc4c3Cl)cc1)C2 (stereo partly shown)
b = O=C(Nc1nccs1)C(c1ncn2c1C[C@@H](F)C2)n1cc2c(Cl)cc(-c3ccc(N4CCOCC4)nc3)c(Cl)c2n1 (mixture of isomers)
c = CN1CCC(Oc2ccc(-c3cc(Cl)c4cn(C(C(=O)Nc5nccs5)c5ncn6c5C[C@@H](F)C6)nc4c3Cl)cc2)CC1 (stereo partly shown)
Descending sort on IC50 required. // list labels; follow requested order
a, b, c
(a: 10 nM, b: 6 nM, c: 4 nM)

All figures here come from patent US12479849B2.
